Source of measurements: ChEMBL document CHEMBL1201862

# Target: Ataxin-2 (Homo sapiens) (UniProt Q99700)
# Sequence (Q99700 whole entry): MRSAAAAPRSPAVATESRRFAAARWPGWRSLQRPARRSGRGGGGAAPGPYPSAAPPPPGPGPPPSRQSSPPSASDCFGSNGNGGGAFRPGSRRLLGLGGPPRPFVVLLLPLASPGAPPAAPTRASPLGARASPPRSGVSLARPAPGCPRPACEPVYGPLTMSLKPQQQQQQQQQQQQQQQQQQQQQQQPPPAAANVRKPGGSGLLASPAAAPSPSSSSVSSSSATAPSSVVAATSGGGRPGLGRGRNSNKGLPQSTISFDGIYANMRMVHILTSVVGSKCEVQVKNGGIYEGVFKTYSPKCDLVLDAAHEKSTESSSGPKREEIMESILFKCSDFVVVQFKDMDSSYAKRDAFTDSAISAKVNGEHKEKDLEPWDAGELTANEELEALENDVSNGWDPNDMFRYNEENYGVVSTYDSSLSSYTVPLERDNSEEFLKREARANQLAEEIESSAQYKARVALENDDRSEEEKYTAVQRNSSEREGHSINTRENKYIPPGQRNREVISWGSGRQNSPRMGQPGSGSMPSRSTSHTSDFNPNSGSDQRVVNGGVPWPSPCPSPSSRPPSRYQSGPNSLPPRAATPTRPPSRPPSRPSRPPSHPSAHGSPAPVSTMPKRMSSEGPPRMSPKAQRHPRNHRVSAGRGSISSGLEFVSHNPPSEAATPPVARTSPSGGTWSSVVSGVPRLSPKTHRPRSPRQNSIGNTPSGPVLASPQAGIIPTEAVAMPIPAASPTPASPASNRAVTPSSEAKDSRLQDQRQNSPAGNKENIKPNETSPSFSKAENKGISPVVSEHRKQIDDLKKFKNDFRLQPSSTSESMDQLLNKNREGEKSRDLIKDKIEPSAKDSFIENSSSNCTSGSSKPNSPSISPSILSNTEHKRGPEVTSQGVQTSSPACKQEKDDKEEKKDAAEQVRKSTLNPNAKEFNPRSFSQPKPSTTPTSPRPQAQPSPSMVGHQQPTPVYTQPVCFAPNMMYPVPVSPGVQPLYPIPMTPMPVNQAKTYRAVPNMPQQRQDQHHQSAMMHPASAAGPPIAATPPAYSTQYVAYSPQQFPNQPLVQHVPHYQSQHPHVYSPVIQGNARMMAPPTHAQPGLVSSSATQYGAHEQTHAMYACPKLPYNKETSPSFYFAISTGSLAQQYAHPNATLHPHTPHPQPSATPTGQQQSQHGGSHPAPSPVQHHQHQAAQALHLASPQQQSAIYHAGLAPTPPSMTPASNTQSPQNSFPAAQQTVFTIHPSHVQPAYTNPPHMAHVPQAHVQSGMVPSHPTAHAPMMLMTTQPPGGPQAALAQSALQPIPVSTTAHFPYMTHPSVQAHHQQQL
# Assay explanation: qHTS for Inhibitors of ATXN expression.
# Type: functional
Screen size: about 400,000 compounds; about 2,100 (0.53%) were called active. Not shown: some 14% with an inconclusive outcome. No rule for the calls is given here. This excerpt belongs to a sample that is enriched for actives.
Outcome codes: active, inactive

Molecule | Target | Assigned class
COc1cc(NC(=O)c2oc3ccccc3c2C)ccc1NC(=O)c1ccco1 | Ataxin-2 (Homo sapiens) (UniProt Q99700) | inactive
Cc1ccc(NC(=O)C2CCN(C(=O)c3ccco3)CC2)cc1 | Ataxin-2 (Homo sapiens) (UniProt Q99700) | inactive
CN(C)c1c2ccccc2nc2c(F)c(F)c(F)c(F)c12 | Ataxin-2 (Homo sapiens) (UniProt Q99700) | inactive
COc1ccccc1Nc1nn2c(=O)c3ccc(C(=O)NCCC4=CCCCC4)cc3nc2s1 | Ataxin-2 (Homo sapiens) (UniProt Q99700) | active
CC1CCN(C(=O)c2cc(Cl)ccc2NC(=O)c2ccco2)CC1 | Ataxin-2 (Homo sapiens) (UniProt Q99700) | inactive
S=C(NCc1ccccc1)N/N=C/c1cccs1 | Ataxin-2 (Homo sapiens) (UniProt Q99700) | inactive
O=C(CSc1nc(O)c2ccccc2n1)Nc1ccc(N2CCOCC2)c(Cl)c1 | Ataxin-2 (Homo sapiens) (UniProt Q99700) | inactive
Cc1cc(C)c2c(N)c3cccc(C)c3nc2n1 | Ataxin-2 (Homo sapiens) (UniProt Q99700) | inactive
CN(C)c1cccc(C(=O)OCc2cc(=O)oc3cc(O)ccc23)c1 | Ataxin-2 (Homo sapiens) (UniProt Q99700) | inactive
